What %Inh was measured for each of the following?
tested on: ALK; conditions: concentration: 1 μM, replicates: in singlicate; n = 1;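 also: KINOMEscan kinase panel screen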
# number only, unit % dropped from output

Task: State measured %Inh of the compound `COc1ccc2nc(-c3cccc(C)n3)nc(Nc3ccncc3)c2c1` with ALK.
Output: 24

Task: Specify %Inh for `Cl.Oc1ccc(-c2nc(-c3ccccc3)[nH]c2-c2ccncc2)cc1` , system ALK.
Output: 44

Task: Tell me its %Inh on ALK: `Cc1cc(-c2ccc3c(c2)CC[C@@H](N[C@@H](C)c2ccccc2)C3)cnc1N.Cl`
Output: 52

Task: Name the recorded %Inh of `Cc1c(O)cccc1Nc1ccnc2ccc(C(F)(F)F)cc12.Cl` , assay system ALK.
Output: 25

Task: # lookup: ALK %Inh, key = `O=C(Nc1n[nH]c2cc(-c3cccc(F)c3F)ccc12)C1CC1`
Output: 0

---

system: MEK6; construct: gene MAP2K6; details: concentration: 1 μM, replicates: in singlicate; n = 1
quantity: %Inh (%)
The reply should contain only the number, in %.

Task: Give %Inh for `Cc1c(O)cccc1Nc1ccnc2ccc(C(F)(F)F)cc12.Cl`
Output: 0

Task: Annotate the molecule `O=C(O)COc1ncnc2cc(-c3ccc4[nH]ncc4c3)sc12` with its measured %Inh.
Output: 0

Task: Identify measured %Inh corresponding to `COc1cccc(-c2cc(-c3c[nH]nc3-c3ccccn3)ccn2)c1`
Output: 0

Task: Give %Inh for CCCc1ccc(S(=O)(=O)NC2CCN(c3ccnc(Nc4ccc(F)cc4)n3)C2)cc1 (centres unmarked)
Output: 100

Task: State its %Inh for this molecule: COc1ccc(CNC(=O)NC2CCN(c3ccnc(Nc4cc(OC)c(OC)c(OC)c4)n3)C2)cc1 (centres unmarked)
Output: 0

---

test system: EPHA3; settings: concentration: 1 μM, replicates: in singlicate; n = 1
Provide the reported %Inh of each item.
Kindly answer with a numeric value in %, unit omitted.

Task: Please indicate %Inh recorded for `Cc1cc(NCC(c2ccccc2)c2ccccc2)nc(NCc2ccc(C(F)(F)F)cc2)n1`
Output: 0

Task: # return recorded %Inh for entry `Cn1ccc2ncnc(Oc3ccc(Nc4nc5ccccc5[nH]4)cc3)c21`
Output: 2

Task: Specify %Inh for `CSc1nn2c(=O)cc(N3CCOCC3)nc2n1Cc1cccc(C(F)(F)F)c1C` and stop.
Output: 0

Task: Read the entry `Cc1cccc(-c2cc(Nc3ccncc3)c3ccccc3n2)n1` and write its reported %Inh.
Output: 0

Task: # return recorded %Inh for input `Cc1csc(-c2nc(Nc3ccncc3)c3ccccc3n2)n1`
Output: 30

Task: Provide measured %Inh value, entry: `COC(=O)c1c(-c2ccccc2)c2cc(C(=O)O)ccc2c(=O)n1Cc1ccccc1`
Output: 15

---

test system: MKK7; settings: concentration: 1 μM, replicates: in singlicate; n = 1
Provide the recorded %Inh for the entries that follow.

Task: State %Inh on MKK7. Entry: O=C(Nc1ccc2c(c1)OCO2)NC1CCN(c2ccnc(Nc3ccc(F)cc3)n2)C1 (stereo not drawn)
Output: 0%

Task: Give the observed %Inh of `C[C@@H]1CCCCN1c1cc(-c2ccc3c(N)n[nH]c3c2)nc(N)n1` for MKK7.
Output: 0%

Task: For MKK7, give the measured %Inh of the entry `COc1ccc2nc(-c3cccc(C)n3)nc(Nc3ccncc3)c2c1`
Output: 0%

Task: Report value only: %Inh, MKK7, `Cc1cccc(-c2nc(-c3ccc(S(C)(=O)=O)cc3)sc2-c2ccnc(NCCc3ccccc3)c2)c1`
Output: 0%

Task: Give MKK7 %Inh for the following compound: `Cc1csc(-c2nc(Nc3ccncc3)c3ccccc3n2)n1`
Output: 10%

Task: Supply %Inh measured with MKK7 for `COC(=O)c1c(-c2ccccc2)c2cc(OC)ccc2c(=O)n1Cc1ccccc1` .
Output: 7%

Task: Look up and report %Inh, with MKK7 as system, for `COc1ccc(Nc2nccc(-c3cccc(NC(=O)c4cc5cc(F)ccc5[nH]4)c3)n2)cc1`
Output: 21%

Task: Answer with %Inh of `CC(=O)Nc1nc2cnc(Nc3cc(NC(=O)c4cccc(CCC#N)c4)ccc3C)nc2s1` measured for MKK7.
Output: 0%

Task: State recorded %Inh with MKK7, entry COc1cc2ncn(-c3cc(OCC4CCCO4)c(C(N)=O)s3)c2cc1OC (stereo not drawn) , no comment.
Output: 0%

Just for reference, paper PMC5540273 is where these values come from.
